- system_under_test: GST-ANAC055(1-171) (Arabidopsis thaliana, UniProt Q9LDY8 1-171)
- Sequence: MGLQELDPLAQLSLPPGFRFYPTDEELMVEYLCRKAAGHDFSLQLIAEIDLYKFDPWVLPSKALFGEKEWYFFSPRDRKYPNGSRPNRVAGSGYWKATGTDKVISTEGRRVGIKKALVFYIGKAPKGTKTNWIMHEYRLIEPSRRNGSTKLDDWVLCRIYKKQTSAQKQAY
- assay_remarks: universal protein binding microarray (PBM); transcription factors of Arabidopsis thaliana; high values mean tight binding
- cond: protein: recombinant; tags: GST; chain copies: 2; dsDNA, one strand shown
endpoint_label: binding signal

>>> recorded_result("CACGAAAC")
"0.343 E-score"
>>> recorded_result("CTTAAGTA")
"0.178 E-score"
>>> recorded_result("CACGGCAA")
"0.44 E-score"
>>> recorded_result("CAACACGC")
"0.227 E-score"
>>> recorded_result("ACGCAACT")
"0.433 E-score"
>>> recorded_result("TATACGCA")
"0.32 E-score"
>>> recorded_result("AATTTGAC")
"0.0892 E-score"
>>> recorded_result("CACGCAAA")
"0.348 E-score"
>>> recorded_result("GCGTAAAA")
"0.087 E-score"
>>> recorded_result("CACGTCAA")
"0.324 E-score"
>>> recorded_result("AGTTACGC")
"0.0766 E-score"
>>> recorded_result("GGAAGTAA")
"0.104 E-score"
>>> recorded_result("ACAGGGAA")
"0.0748 E-score"
>>> recorded_result("GTTACGCA")
"0.189 E-score"
>>> recorded_result("TAGAGTAA")
"0.0921 E-score"
>>> recorded_result("GAAGTAAC")
"0.106 E-score"
>>> recorded_result("TCAAGTCA")
"0.0629 E-score"
>>> recorded_result("ACACGACA")
"0.438 E-score"
>>> recorded_result("CTATTGAC")
"0.0817 E-score"
>>> recorded_result("CCCCGCCC")
"0.178 E-score"
>>> recorded_result("ACACGCCA")
"0.298 E-score"
>>> recorded_result("CTACACGC")
"0.0947 E-score"
>>> recorded_result("ATGTCAAC")
"0.133 E-score"
>>> recorded_result("AAGTAAGT")
"0.164 E-score"
>>> recorded_result("AAGGTAAC")
"0.185 E-score"
>>> recorded_result("AAGGAAAT")
"0.0899 E-score"
>>> recorded_result("CGTTTCCC")
"0.176 E-score"
>>> recorded_result("ACCCCGCC")
"0.123 E-score"
>>> recorded_result("ACGCAATG")
"0.21 E-score"
>>> recorded_result("GTACGTAA")
"0.42 E-score"
>>> recorded_result("GTTAAGGA")
"0.165 E-score"
>>> recorded_result("CCACACGC")
"0.15 E-score"
>>> recorded_result("CACGCCAC")
"0.268 E-score"
>>> recorded_result("AGCGTGTA")
"0.112 E-score"
>>> recorded_result("AATTGCGT")
"0.395 E-score"
>>> recorded_result("GAGGGTAA")
"0.0669 E-score"
>>> recorded_result("ACGCAAAG")
"0.228 E-score"
>>> recorded_result("GCGTGTAA")
"0.222 E-score"
